experiment: Half-life in mouse liver microsomes in presence of NADPH by LC-MS/MS analysis; type: ADME, Microsome
Readout Kind: half-life (min)

• O=C(NO)c1ccc(COc2no[n+]([O-])c2S(=O)(=O)c2ccccc2)cc1 = 1.8

###

Property: IC50 at 48 h; scope: individual compounds
experiment: Cytotoxicity against human L02 cells assessed as inhibition of cell proliferation incubated for 48 hrs by CCK8 assay; format: toxicity, cell-based
Readout Kind: IC50 at 48 h (µM)

- O=C(NO)c1ccc(COc2no[n+]([O-])c2S(=O)(=O)c2ccccc2)cc1: 8.2
- O=C(CCCCCOc1no[n+]([O-])c1S(=O)(=O)c1ccccc1)NO: 8.7
- O=C(NO)c1ccc(Oc2no[n+]([O-])c2S(=O)(=O)c2ccccc2)cc1: 14.3
- O=S(=O)(c1ccccc1)c1c(OCc2ccc(CO)cc2)no[n+]1[O-]: 8.4
- O=C(CCCCCCNC(=O)c1cnc(N(c2ccccc2)c2ccccc2Cl)nc1)NO: 15.2

###

target: Histone deacetylase 5 (Homo sapiens, UniProt Q9UQL6); assay: Inhibition of C-terminal His-tagged human recombinant HDAC5 catalytic domain (656 to 1122 residues) expressed in baculovirus-infected Sf9 cells using Boc-Lys(trifluoroacety1)-AMC as substrate preincubated with enzyme for 1 hr followed by substrate addition and measured after 30 mins by fluorescence based analysis
Sequence (Q9UQL6 whole entry, the tested form may be a part): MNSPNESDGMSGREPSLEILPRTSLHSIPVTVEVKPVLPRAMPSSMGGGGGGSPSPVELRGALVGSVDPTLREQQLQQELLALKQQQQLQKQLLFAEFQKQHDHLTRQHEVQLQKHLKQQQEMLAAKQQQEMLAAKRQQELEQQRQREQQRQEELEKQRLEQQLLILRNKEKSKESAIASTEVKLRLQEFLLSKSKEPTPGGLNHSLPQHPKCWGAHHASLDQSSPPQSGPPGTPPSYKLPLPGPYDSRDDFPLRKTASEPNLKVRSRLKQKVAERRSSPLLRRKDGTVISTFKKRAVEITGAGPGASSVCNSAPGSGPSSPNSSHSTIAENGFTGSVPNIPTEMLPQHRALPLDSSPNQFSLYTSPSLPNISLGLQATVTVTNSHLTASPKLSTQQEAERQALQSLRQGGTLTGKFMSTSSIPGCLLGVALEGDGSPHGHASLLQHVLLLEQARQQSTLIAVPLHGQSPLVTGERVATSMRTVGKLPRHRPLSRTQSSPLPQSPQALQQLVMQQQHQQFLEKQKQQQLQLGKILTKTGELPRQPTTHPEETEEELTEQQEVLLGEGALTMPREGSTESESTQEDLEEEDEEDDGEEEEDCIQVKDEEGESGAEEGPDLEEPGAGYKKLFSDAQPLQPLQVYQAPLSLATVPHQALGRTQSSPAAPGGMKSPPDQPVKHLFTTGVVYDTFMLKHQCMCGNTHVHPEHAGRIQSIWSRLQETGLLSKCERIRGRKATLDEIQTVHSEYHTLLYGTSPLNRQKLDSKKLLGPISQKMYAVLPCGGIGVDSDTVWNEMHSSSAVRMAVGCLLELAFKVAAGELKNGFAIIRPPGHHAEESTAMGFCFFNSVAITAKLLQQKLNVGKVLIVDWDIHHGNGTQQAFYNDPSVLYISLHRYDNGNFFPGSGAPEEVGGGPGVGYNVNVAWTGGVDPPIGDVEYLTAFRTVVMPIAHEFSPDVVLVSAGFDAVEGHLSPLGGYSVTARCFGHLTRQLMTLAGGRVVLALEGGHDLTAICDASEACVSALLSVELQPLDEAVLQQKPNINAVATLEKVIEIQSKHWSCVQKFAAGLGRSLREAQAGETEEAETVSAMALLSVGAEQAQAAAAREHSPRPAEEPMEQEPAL
pIC50: −log10 of the molar value.
Readout Kind: pIC50

• O=C(NO)c1ccc(COc2no[n+]([O-])c2S(=O)(=O)c2ccccc2)cc1 = < 4.40

###

target: Histone deacetylase 4 (Homo sapiens, UniProt P56524)
Sequence (P56524 whole entry): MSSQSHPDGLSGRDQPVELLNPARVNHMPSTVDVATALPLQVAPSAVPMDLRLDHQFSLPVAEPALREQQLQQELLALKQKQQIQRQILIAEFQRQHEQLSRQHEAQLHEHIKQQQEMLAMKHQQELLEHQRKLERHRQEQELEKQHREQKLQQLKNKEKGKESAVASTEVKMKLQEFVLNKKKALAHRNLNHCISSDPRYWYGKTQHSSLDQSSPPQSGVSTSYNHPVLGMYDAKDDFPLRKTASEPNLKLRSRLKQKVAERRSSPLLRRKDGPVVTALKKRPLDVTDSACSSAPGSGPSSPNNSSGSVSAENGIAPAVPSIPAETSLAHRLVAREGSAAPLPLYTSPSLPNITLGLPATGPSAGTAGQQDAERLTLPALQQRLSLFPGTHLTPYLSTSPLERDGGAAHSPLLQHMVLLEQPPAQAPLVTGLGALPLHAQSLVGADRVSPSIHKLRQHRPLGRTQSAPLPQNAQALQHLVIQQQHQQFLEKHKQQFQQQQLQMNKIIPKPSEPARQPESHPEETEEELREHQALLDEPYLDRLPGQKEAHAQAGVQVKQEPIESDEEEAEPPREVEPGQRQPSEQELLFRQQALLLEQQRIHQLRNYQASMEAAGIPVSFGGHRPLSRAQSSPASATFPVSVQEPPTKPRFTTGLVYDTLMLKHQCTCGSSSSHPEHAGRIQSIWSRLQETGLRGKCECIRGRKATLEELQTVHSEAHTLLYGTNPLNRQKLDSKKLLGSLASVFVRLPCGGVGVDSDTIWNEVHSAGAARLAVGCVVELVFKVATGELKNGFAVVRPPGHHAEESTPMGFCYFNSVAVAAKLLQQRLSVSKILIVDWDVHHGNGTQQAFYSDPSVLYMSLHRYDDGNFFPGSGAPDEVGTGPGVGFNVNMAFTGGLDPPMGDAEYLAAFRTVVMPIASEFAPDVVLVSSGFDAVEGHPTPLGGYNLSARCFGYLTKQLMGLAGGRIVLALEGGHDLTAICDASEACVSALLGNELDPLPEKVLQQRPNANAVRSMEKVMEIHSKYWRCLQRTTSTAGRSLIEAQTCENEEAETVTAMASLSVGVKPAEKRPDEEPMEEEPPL
Readout Kind: IC50

* O=C(NO)c1ccc(COc2no[n+]([O-])c2S(=O)(=O)c2ccccc2)cc1 | > 40 µM

###

system: MM1.S; experiment: Antiproliferative activity against human MM1.S cells assessed as inhibition of cell proliferation incubated for 48 hrs by CCK8 assay; type: functional, cell-based
Readout Kind: IC50

- O=C(NO)c1ccc(COc2nonc2S(=O)(=O)c2ccccc2)cc1: 6400 nM
- O=C(CCCCCOc1no[n+]([O-])c1S(=O)(=O)c1ccccc1)NO: 430 nM
- O=C(CCCCCCNC(=O)c1cnc(N(c2ccccc2)c2ccccc2Cl)nc1)NO: 2000 nM
- O=C(NO)c1ccc(COc2no[n+]([O-])c2S(=O)(=O)c2ccccc2)cc1: 420 nM
- O=S(=O)(c1ccccc1)c1c(OCc2ccc(CO)cc2)no[n+]1[O-]: 910 nM
- O=C(NO)c1ccc(Oc2no[n+]([O-])c2S(=O)(=O)c2ccccc2)cc1: 1100 nM

###

experiment: Intrinsic clearance in rat liver microsomes in presence of NADPH by LC-MS/MS analysis; assay type: ADME, Microsome; details: read-out: CLH
Readout Kind: CLint scaled (mL/min/kg)

* O=C(NO)c1ccc(COc2no[n+]([O-])c2S(=O)(=O)c2ccccc2)cc1 | 270

###

test: Half-life in rat liver microsomes in presence of NADPH by LC-MS/MS analysis; type: ADME, Microsome
Readout Kind: half-life (min)

- O=C(NO)c1ccc(COc2no[n+]([O-])c2S(=O)(=O)c2ccccc2)cc1: 9.2

###

Property: fold change (FC); scope: individual molecules
biological target: Protein deacetylase HDAC6 (Homo sapiens) (UniProt Q9UBN7); assay: Inhibition of HDAC6 in human A549 cells assessed as acetyl alpha-tubulin level at 2 uM incubated for 5 hrs by western blot analysis relative to control; format: cell-based
Readout Kind: fold change (FC)

• COc1cc(C(=O)NO)ccc1Oc1no[n+]([O-])c1S(=O)(=O)c1ccccc1 = 1.3
• O=C(NO)c1ccc(Oc2no[n+]([O-])c2S(=O)(=O)c2ccccc2)cc1 = 2.1
• O=C(NO)c1ccc(COc2no[n+]([O-])c2S(=O)(=O)c2ccccc2)cc1 = 4.3
• O=S(=O)(c1ccccc1)c1c(OCCCCCCO)no[n+]1[O-] = 1.3
• O=C(NO)c1cccc(Oc2no[n+]([O-])c2S(=O)(=O)c2ccccc2)c1 = 1.1
• O=C(CCCCCOc1no[n+]([O-])c1S(=O)(=O)c1ccccc1)NO = 3.8
• O=C(/C=C/COc1no[n+]([O-])c1S(=O)(=O)c1ccccc1)NO = 0.8
• O=C(/C=C/c1ccc(Oc2no[n+]([O-])c2S(=O)(=O)c2ccccc2)cc1)NO = 2.7

###

molecular target: Protein deacetylase HDAC6 (Homo sapiens, UniProt Q9UBN7); assay: Inhibition of N-terminal GST-tagged human full length recombinant HDAC6 (1 to 1215 residues) expressed in Sf9 cells using Boc-Lys(acetyI)-AMC as substrate preincubated with enzyme for 1 hr followed by substrate addition and measured after 30 mins by fluorescence based analysis
Sequence (Q9UBN7 whole entry, the tested form may be a part): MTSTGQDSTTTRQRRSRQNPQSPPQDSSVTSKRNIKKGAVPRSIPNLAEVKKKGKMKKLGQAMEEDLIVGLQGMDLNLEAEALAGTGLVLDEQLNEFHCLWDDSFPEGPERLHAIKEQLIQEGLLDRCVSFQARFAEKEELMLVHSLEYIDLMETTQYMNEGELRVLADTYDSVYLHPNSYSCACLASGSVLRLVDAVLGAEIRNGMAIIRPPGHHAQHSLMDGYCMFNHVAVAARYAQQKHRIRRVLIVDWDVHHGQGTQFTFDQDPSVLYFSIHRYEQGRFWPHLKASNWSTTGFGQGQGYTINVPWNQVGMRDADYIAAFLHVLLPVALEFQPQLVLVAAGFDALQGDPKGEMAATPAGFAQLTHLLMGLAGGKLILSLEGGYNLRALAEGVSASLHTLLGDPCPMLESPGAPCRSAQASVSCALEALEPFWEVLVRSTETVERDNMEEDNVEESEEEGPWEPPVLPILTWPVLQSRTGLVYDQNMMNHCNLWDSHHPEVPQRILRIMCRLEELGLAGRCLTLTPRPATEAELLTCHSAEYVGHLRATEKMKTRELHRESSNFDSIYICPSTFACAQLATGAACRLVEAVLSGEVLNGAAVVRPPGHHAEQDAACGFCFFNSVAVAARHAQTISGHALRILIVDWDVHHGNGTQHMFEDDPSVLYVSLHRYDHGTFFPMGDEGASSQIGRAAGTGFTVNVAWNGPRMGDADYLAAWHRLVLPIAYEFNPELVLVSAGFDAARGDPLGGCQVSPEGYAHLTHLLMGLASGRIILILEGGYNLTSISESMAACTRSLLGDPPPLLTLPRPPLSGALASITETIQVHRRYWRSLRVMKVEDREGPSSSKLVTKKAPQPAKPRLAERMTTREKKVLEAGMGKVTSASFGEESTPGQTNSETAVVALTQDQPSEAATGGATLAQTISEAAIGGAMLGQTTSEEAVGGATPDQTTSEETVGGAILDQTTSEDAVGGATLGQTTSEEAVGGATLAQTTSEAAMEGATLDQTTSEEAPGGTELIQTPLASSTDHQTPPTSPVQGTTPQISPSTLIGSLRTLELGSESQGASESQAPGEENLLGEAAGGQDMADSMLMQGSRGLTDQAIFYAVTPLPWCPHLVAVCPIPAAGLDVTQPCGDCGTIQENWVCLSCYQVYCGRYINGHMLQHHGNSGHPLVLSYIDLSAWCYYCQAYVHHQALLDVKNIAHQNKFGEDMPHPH
pIC50: −log10 of the molar value.
Property: pIC50; scope: individual compounds
Readout Kind: pIC50

* O=C(NO)c1ccc(COc2no[n+]([O-])c2S(=O)(=O)c2ccccc2)cc1 | 7.48
* O=C(NO)c1cccc(Oc2no[n+]([O-])c2S(=O)(=O)c2ccccc2)c1 | 4.41
* COc1cc(C(=O)NO)ccc1Oc1no[n+]([O-])c1S(=O)(=O)c1ccccc1 | 5.57
* O=C(/C=C/COc1no[n+]([O-])c1S(=O)(=O)c1ccccc1)NO | 4.98
* O=C(/C=C/c1ccc(Oc2no[n+]([O-])c2S(=O)(=O)c2ccccc2)cc1)NO | 6.51
* O=C(NO)c1ccc(Oc2no[n+]([O-])c2S(=O)(=O)c2ccccc2)cc1 | 6.80
* O=C(CCCCCOc1no[n+]([O-])c1S(=O)(=O)c1ccccc1)NO | 7.33

###

experiment: Metabolic stability of the compound in rat liver microsomes assessed as parent compound remaining measured after 60 mins in presence of NADPH by LC-MS/MS analysis; format: ADME, Microsome; conditions: read-out: Stability
Readout Kind: remaining at 1 h (%)

- O=C(NO)c1ccc(COc2no[n+]([O-])c2S(=O)(=O)c2ccccc2)cc1: 0.6

###

target: Histone deacetylase 7 (Homo sapiens)
Readout Kind: IC50

• O=C(NO)c1ccc(COc2no[n+]([O-])c2S(=O)(=O)c2ccccc2)cc1 = > 40 µM

###

target: Histone deacetylase 2 (Homo sapiens, UniProt Q92769); assay: Inhibition of C-terminal FLAG-tagged human full length recombinant HDAC2 (1 to 488 residues) expressed in Sf9 cells using Boc-Lys(acetyI)-AMC as substrate preincubated with enzyme for 1 hr followed by substrate addition and measured after 30 mins by fluorescence based analysis
Sequence (Q92769 whole entry, the tested form may be a part): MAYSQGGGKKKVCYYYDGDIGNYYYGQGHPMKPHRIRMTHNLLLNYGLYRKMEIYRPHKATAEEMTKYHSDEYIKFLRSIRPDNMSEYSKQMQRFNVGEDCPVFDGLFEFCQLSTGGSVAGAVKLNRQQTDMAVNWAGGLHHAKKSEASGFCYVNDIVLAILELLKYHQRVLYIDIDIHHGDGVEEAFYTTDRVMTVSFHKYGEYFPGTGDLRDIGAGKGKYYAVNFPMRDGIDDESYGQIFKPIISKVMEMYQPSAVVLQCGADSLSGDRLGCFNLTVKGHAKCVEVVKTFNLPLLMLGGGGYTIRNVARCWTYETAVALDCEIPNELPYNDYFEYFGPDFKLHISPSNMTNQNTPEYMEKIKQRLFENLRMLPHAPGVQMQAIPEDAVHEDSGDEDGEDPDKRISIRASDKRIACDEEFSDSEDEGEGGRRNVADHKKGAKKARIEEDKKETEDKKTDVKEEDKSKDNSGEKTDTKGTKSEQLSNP
Property: IC50; scope: individual compounds
Readout Kind: IC50 (µM)

* O=C(/C=C/c1ccc(Oc2no[n+]([O-])c2S(=O)(=O)c2ccccc2)cc1)NO | 1
* O=C(NO)c1ccc(Oc2no[n+]([O-])c2S(=O)(=O)c2ccccc2)cc1 | 3.4
* O=C(NO)c1ccc(COc2no[n+]([O-])c2S(=O)(=O)c2ccccc2)cc1 | 1.5
* O=C(NO)c1cccc(Oc2no[n+]([O-])c2S(=O)(=O)c2ccccc2)c1 | 8.1
* O=C(/C=C/COc1no[n+]([O-])c1S(=O)(=O)c1ccccc1)NO | 6.6
* COc1cc(C(=O)NO)ccc1Oc1no[n+]([O-])c1S(=O)(=O)c1ccccc1 | 5.3

###

target: Histone deacetylase 1 (Homo sapiens, UniProt Q13547); assay: Inhibition of C-terminal His/FLAG-tagged human full length recombinant HDAC1 (1 to 482 residues) expressed in Sf9 cells using Boc-Lys(acetyI)-AMC as substrate preincubated with enzyme for 1 hr followed by substrate addition and measured after 30 mins by fluorescence based analysis
Sequence (Q13547 whole entry, the tested form may be a part): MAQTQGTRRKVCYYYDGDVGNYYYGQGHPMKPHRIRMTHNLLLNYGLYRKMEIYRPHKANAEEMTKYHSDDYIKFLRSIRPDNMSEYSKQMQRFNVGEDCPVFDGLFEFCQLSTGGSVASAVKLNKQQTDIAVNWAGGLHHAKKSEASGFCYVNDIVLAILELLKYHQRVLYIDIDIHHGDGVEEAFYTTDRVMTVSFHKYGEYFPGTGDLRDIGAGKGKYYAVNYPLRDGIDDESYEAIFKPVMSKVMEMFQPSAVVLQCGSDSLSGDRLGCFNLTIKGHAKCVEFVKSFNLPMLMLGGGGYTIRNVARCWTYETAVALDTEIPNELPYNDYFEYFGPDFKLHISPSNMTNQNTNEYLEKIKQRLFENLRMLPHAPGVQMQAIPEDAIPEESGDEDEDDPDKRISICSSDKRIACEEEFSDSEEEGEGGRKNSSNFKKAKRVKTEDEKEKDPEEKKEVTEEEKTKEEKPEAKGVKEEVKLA
Readout Kind: IC50 (µM)

* O=C(NO)c1ccc(COc2no[n+]([O-])c2S(=O)(=O)c2ccccc2)cc1 | 4.8
